# Test description: chemical recovery by SPE of plasma after PDMS sampling; higher = better extraction;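 further: over 400 spiked chemicals quantified by LC-HRMS or GC-HRMS via internal standard calibration, recovery relative to spike mix added to unspiked plasma extract to correct matrix effects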
# Condition info: pooled human plasma; extraction method: HLB SPE of plasma after PES; equilibration time (d): 3
Task for the reader: assign each of the following molecules its reported chemical recovery by SPE of plasma.
Reply with just the number (in %).

Q. Look up chemical recovery by SPE of plasma for this molecule: `O=C(O)CCC(=O)c1ccc(F)cc1`
A. 60.3

Q. Which chemical recovery by SPE of plasma reading was recorded for the molecule `Nc1ccc(Cl)cc1` ?
A. 14.6

Q. Please report the recorded chemical recovery by SPE of plasma for `C[Si](Cn1cncn1)(c1ccc(F)cc1)c1ccc(F)cc1` .
A. 0.383

Q. I'd like to know its chemical recovery by SPE of plasma. The molecule in question is `Cc1cccc(C)c1N(Cn1cccn1)C(=O)CS(=O)(=O)O`
A. 50.6

Q. Entry `Cc1cc(C2CC2)nc(Nc2ccccc2)n1` : reported chemical recovery by SPE of plasma = ?
A. 0.733

Q. Using the record for `CC(C)(c1cc(Br)c(O)c(Br)c1)c1cc(Br)c(O)c(Br)c1` , report its chemical recovery by SPE of plasma.
A. 30.4

Q. Recorded chemical recovery by SPE of plasma for `CC(C)(C)Nc1nc(N)nc(Cl)n1` , please?
A. 9.29

Q. # query: chemical recovery by SPE of plasma of entry O=c1[nH]c2ccccc2s1 [2-Hydroxybenzothiazole]
A. 37.7

Q. Quick one: chemical recovery by SPE of plasma of `S=C1NCCN1` ?
A. 0.0882

Q. So what's the measured chemical recovery by SPE of plasma for this one? `C[C@]12CCC(=O)C=C1[C@@H]1C[C@@H]1[C@H]1[C@@H]3[C@@H]4C[C@@H]4[C@@]4(CCC(=O)O4)[C@@]3(C)CC[C@@H]12`
A. 2.16

Q. What measured chemical recovery by SPE of plasma goes with COP(=O)(OC)C(O)C(Cl)(Cl)Cl (centres undefined) ?
A. 25.3

Q. Given the entry `COCCN(C(=O)CS(=O)(=O)O)c1c(C)cccc1C` , report its measured chemical recovery by SPE of plasma.
A. 53.3

Q. Look up chemical recovery by SPE of plasma for this molecule: `CCCCc1oc2ccccc2c1C(=O)c1cc(I)c(OCCN(CC)CC)c(I)c1`
A. 0.127

Q. Given the entry `COc1cc(OC)nc(NC(=O)NS(=O)(=O)c2ncccc2C(=O)N(C)C)n1` , report its measured chemical recovery by SPE of plasma.
A. 56

Q. Request the reported chemical recovery by SPE of plasma associated with `COCCCC/C(=N\OCCN)c1ccc(C(F)(F)F)cc1`
A. 1.56

Q. Need chemical recovery by SPE of plasma, item `c1cc2c3c(c1)ccc1cccc(c13)C2`
A. 2

Q. Find the recorded chemical recovery by SPE of plasma belonging to `CCN(CC)c1nc(C)cc(OP(=S)(OC)OC)n1` and report it.
A. 0.453

Q. Please look up its chemical recovery by SPE of plasma: `CCOC(=O)c1ccc(N)cc1`
A. 18.4

Q. Find the recorded chemical recovery by SPE of plasma belonging to `Clc1cc(Cl)c(-c2cc(Cl)c(Cl)c(Cl)c2Cl)cc1Cl` and report it.
A. 3.71

Q. Endpoint output: chemical recovery by SPE of plasma of `C#C[C@]1(O)CC[C@H]2[C@@H]3CCC4=CC(=O)CC[C@@H]4[C@H]3CC[C@@]21C` . Value?
A. 4.09

Q. Fill blank: measured chemical recovery by SPE of plasma of the molecule O=C1Nc2ccc(Cl)cc2C(c2ccccc2Cl)=NC1O (centres undefined) is ____.
A. 38.9

Q. Record request: chemical recovery by SPE of plasma value, item `C[C@]12CCC(=O)C=C1CC[C@@H]1[C@@H]2CC[C@]2(C)C(=O)CC[C@@H]12`
A. 4.32

Q. I'd like to know its chemical recovery by SPE of plasma. The molecule in question is `Nc1ccc(Sc2ccc(N)cc2)cc1`
A. 10.6

Q. Recorded chemical recovery by SPE of plasma of `c1ccc(-c2cccc3ccccc23)cc1` , please.
A. 2.49

Q. Param item = `Oc1cc(Cl)ccc1Oc1ccc(Cl)cc1Cl` ; retrieve measured chemical recovery by SPE of plasma.
A. 23.5

Q. For `CCNc1nc(Cl)nc(NC(C)(C)C)n1` , what is its reported chemical recovery by SPE of plasma?
A. 1.28

Q. Name the recorded chemical recovery by SPE of plasma for CC(C)NCC(O)c1ccc(NS(C)(=O)=O)cc1 (centres undefined) .
A. 21.5

Q. What measured chemical recovery by SPE of plasma goes with CCOC(=O)CC(O)(CC(=O)OCC)C(=O)OCC [Triethylcitrate] ?
A. 26.1

Q. # lookup: chemical recovery by SPE of plasma of `CCCCCCCCCCCC[N+](C)(C)Cc1ccccc1`
A. 43.2

Q. If you can, please state the reported chemical recovery by SPE of plasma value of CC(C)NCC(O)COc1ccc(COCCOC(C)C)cc1 (centres undefined) .
A. 34.4

Q. Look up chemical recovery by SPE of plasma: `c1ccc2cc3c(ccc4ccccc43)cc2c1`
A. 8.41

Q. Requested field: chemical recovery by SPE of plasma. Item: `c1ccc2ncccc2c1`
A. 0.00565

Q. Query: chemical recovery by SPE of plasma; subject: `CCCN(CCOc1c(Cl)cc(Cl)cc1Cl)C(=O)NC=O`
A. 2.44

Q. Query: chemical recovery by SPE of plasma; subject: `CC[C@H]1OC(=O)[C@H](C)[C@@H](O[C@H]2C[C@@](C)(OC)[C@@H](O)[C@H](C)O2)[C@H](C)[C@@H](O[C@@H]2O[C@H](C)C[C@H](N(C)C)[C@H]2O)[C@](C)(O)C[C@@H](C)C(=O)[C@H](C)[C@@H](O)[C@]1(C)O`
A. 11.9

Q. Record request: chemical recovery by SPE of plasma value, item `NC(=O)c1c(Cl)c(Cl)cc(C(=O)O)c1Cl`
A. 49.6

Q. Quick one: chemical recovery by SPE of plasma of CCC(=O)O[C@]1(C(=O)CCl)[C@@H](C)C[C@H]2[C@@H]3CCC4=CC(=O)C=C[C@]4(C)[C@@]3(F)[C@@H](O)C[C@@]21C [Clobetasol propionate] ?
A. 7.02

Q. # get_value(readout='chemical recovery by SPE of plasma', item= `c1ccc(-c2ccccc2-c2ccccc2)cc1` )
A. 2.46

Q. Any idea what chemical recovery by SPE of plasma was measured for `Clc1ccc(Cl)c(-c2ccccc2Cl)c1` ?
A. 0.693

Q. Which chemical recovery by SPE of plasma is listed for `CCNc1nc(NC(C)(C)C)nc(SC)n1` ?
A. 1.01
